Reference source: patent US20100087481A1

Test protocol: Solubility in selected oil-based media
Type: physicochemical
Test conditions: Miglyol® 132 (oil-based medium), oil or lipid; in Miglyol ® 132; read-out: Solubility, Concentration
Quantity kind: solubility (µg/mL)
Numbers only; they are read as µg/mL.

## Input I would be grateful if you could share the reported solubility for O=S(=O)(Nc1cc(Cl)c(Oc2cnc3ccccc3c2)c(Cl)c1)c1ccc(Cl)cc1Cl.O=S(=O)(O)c1ccccc1 [besylate salt of compound 101] .
## Output 800

###

Test protocol: Solubility in selected oil-based media
Type: physicochemical
Test conditions: Maisine 35-I (oil-based medium), oil or lipid; in Maisine 35-I; read-out: Solubility, Concentration
Quantity kind: solubility (µg/mL)
Numbers only; they are read as µg/mL.

## Input I would be grateful if you could share the reported solubility for O=S(=O)(Nc1cc(Cl)c(Oc2cnc3ccccc3c2)c(Cl)c1)c1ccc(Cl)cc1Cl.O=S(=O)(O)c1ccccc1 [besylate salt of compound 101] .
## Output 1160
